meta.source: ChEMBL document CHEMBL1157539

system: Plasmodium falciparum; experiment: GSK_TCMDC: Inhibition of Plasmodium falciparum Dd2 in whole red blood cells, using parasite LDH activity as an index of growth. Test compounds present at 2uM; format: functional
# Inhibition per record follows

{"compound": "N=C(/N=C(/NCCCCCCN/C(=N/C(=N)NCc1ccc(Cl)c(Cl)c1)N1CCCCC1)N1CCCCC1)NCc1ccc(Cl)c(Cl)c1", "outputUnit": "%", "Inhibition": 99}
{"compound": "O=C(Nc1ccc2c(c1)CN(Cc1ccc(N3CCCC3)o1)CCC2)c1cncs1.O=CO", "outputUnit": "%", "Inhibition": 37}
{"compound": "COc1ccc(-c2csc(C(=O)NC3CCC(N4CCC(c5ccccc5C)CC4)CC3)c2)cc1 (centres undefined)", "outputUnit": "%", "Inhibition": 99}
{"compound": "COc1cc(CCNc2nc(NCc3cccc4ccccc34)nc(N3CCC(N)CC3)n2)ccc1O.O=C(O)C(F)(F)F", "outputUnit": "%", "Inhibition": 59}
{"compound": "CCNC(=O)N1CCN(c2nc(-c3ccccc3)nc(COC)c2Cc2ccc(C)cc2)CC1", "outputUnit": "%", "Inhibition": 94}
{"compound": "Cc1ccc(NC(=O)Nc2cccc(Cl)c2)cc1-c1ccc(C(=O)Nc2ccncc2)cc1", "outputUnit": "%", "Inhibition": 49}
{"compound": "O=C(Nc1nc2cc(S(=O)(=O)NCCc3ccc(F)cc3)ccc2n1CCCn1ccnc1)c1ccc(Cl)cc1.O=C(O)C(F)(F)F", "outputUnit": "%", "Inhibition": 55}
{"compound": "CS(=O)(=O)Cc1cccc(Nc2ncc(Cl)c(Nc3cccnc3C(N)=O)n2)c1.Cl", "outputUnit": "%", "Inhibition": 97}
{"compound": "CCCC(C)Nc1nc(C)cc(N[C@@H](Cc2ccccc2)C(=O)Nc2ccccc2)n1.O=C(O)C(F)(F)F (some centres undefined)", "outputUnit": "%", "Inhibition": 67}

---

test system: HepG2; assay: GSK_TCMDC: Percent inhibition of human HepG2 cell line. Test compounds present at 10uM.; assay type: functional
# Inhibition per record follows

{"molecule": "Br.Oc1ccc(CNCCCCCCNCCc2ccc(Cl)cc2)cc1O", "Inhibition": "2%"}
{"molecule": "COc1cccc(CC(=O)N2CCC(n3c(C)nc4ccc(F)cc43)CC2)c1", "Inhibition": "0%"}
{"molecule": "CCc1c(C)nc(-n2nc(C)cc2NC(=O)C2c3ccccc3Oc3ccccc32)[nH]c1=O", "Inhibition": "37%"}
{"molecule": "CN(C)Cc1ccc(-c2cccc(NC(=O)c3ccc(Cl)cc3)c2)cc1.O=C(O)C(F)(F)F", "Inhibition": "24%"}
{"molecule": "Cc1cc2c(cc1C(F)(F)F)N(C(=O)Nc1cc(C(=O)NCCN(C)C)cc(C(F)(F)F)c1)CC2", "Inhibition": "19%"}
{"molecule": "Nc1nc(N)c2c(ccc3c2ccn3CC2CC2)n1", "Inhibition": "46%"}
{"molecule": "O=C(Nc1cccc(-c2ccc(-c3nc4ccccc4[nH]3)cc2)c1)c1csnn1", "Inhibition": "31%"}
{"molecule": "COc1ccc(-c2cccc(NC(=O)c3cccc(C#N)c3)c2)cc1CN1CCC(O)CC1.O=C(O)C(F)(F)F", "Inhibition": "30%"}
{"molecule": "COc1ccc(NC(=O)CCNc2ccnc(NCCc3ccc(F)cc3)n2)cc1.O=C(O)C(F)(F)F", "Inhibition": "4%"}
{"molecule": "CCC[C@@H]([C@@H](CC1CCC(C)CC1)C(=O)N[C@@H](CO)C(=O)Nc1nccs1)N(O)C=O (some centres undefined)", "Inhibition": "0%"}
{"molecule": "COc1ccc2nccc([C@@H](O)CN3CCC(NC(=O)C(c4cc5ccccc5s4)N4CCN(c5ccccc5OC)CC4)CC3)c2c1 (some centres undefined)", "Inhibition": "21%"}
{"molecule": "CN1CCCN(Cc2cccc(-c3cccc(NC(=O)c4ccc(C#N)cc4)c3)c2)CC1.O=C(O)C(F)(F)F", "Inhibition": "7%"}
{"molecule": "Fc1cccc(COc2ccc(Nc3ncnc4sc(C#Cc5ncc[nH]5)cc34)cc2Cl)c1", "Inhibition": "55%"}
{"molecule": "CC(C)(C)Oc1ccc(C[C@@H]2NC3(C(=O)N(Cc4ccc(Cl)c(Cl)c4)c4ccccc43)C3C(=O)N(c4ccc(Br)cc4)C(=O)C32)cc1 (some centres undefined)", "Inhibition": "1%"}
{"molecule": "Cc1cccc(C)c1C1CCN(C2CCC(NC(=O)/C=C/c3ccccc3)CC2)CC1 (centres undefined)", "Inhibition": "42%"}
{"molecule": "CCCCCCN1CCC(NCc2cccc3ccccc23)CC1.O=C(O)C(F)(F)F", "Inhibition": "21%"}
{"molecule": "C=CCNc1cc(-c2ccccn2)nc(-c2ccccn2)n1", "Inhibition": "78%"}
{"molecule": "O=C(/C=C/c1ccc(-c2nc3ccc(Cl)cc3[nH]2)cc1)NC1CCN(Cc2ccccc2)CC1", "Inhibition": "3%"}
{"molecule": "COc1cc(C(=O)N2CCN(C(C)C)CC2)ccc1CN(C)CCCCN1CCN(c2cccc(Cl)c2Cl)CC1.Cl", "Inhibition": "79%"}
